Data provenance: ChEMBL document CHEMBL1133874

Biological target: UniProt P31422
Sequence (P31422 whole entry): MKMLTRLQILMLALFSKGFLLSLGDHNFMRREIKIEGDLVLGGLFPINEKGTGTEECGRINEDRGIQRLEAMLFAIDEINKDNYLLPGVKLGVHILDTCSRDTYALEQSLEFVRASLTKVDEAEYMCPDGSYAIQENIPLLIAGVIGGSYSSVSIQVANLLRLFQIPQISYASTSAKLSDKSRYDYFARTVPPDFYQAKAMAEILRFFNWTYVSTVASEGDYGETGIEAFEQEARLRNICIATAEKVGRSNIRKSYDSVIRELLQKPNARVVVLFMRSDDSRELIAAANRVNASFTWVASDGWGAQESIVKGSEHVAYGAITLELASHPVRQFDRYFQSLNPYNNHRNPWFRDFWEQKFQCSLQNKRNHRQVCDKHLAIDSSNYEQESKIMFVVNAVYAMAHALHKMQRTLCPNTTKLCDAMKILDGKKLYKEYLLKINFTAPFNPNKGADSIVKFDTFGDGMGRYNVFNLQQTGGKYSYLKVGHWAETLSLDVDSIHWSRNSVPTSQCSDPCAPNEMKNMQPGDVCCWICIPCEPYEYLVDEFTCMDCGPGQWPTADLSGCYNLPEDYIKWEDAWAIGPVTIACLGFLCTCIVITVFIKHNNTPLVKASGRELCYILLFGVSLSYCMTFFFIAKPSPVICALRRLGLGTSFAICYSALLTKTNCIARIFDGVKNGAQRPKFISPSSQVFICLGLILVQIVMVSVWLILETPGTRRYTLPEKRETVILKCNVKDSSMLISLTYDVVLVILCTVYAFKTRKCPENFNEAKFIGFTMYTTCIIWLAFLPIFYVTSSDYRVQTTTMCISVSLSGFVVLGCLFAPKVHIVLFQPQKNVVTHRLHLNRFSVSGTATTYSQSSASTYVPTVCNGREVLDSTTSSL
Experiment: Effective concentration required for partial agonistic activity at Metabotropic glutamate receptor 3; Partial agonist
Type: functional
measured parameter: pEC50
// scale note: pEC50 = -log10(conc_M); give the bare number

Suppose we examine the compound N[C@]1(C(=O)O)C[C@H](C(=O)O)N(Cc2ccc(O)cc2)C1 ; what pEC50 value has been reported?
5.12

---

Molecular target: Metabotropic glutamate receptor 6 (Rattus norvegicus)
Sequence (P35349 whole entry): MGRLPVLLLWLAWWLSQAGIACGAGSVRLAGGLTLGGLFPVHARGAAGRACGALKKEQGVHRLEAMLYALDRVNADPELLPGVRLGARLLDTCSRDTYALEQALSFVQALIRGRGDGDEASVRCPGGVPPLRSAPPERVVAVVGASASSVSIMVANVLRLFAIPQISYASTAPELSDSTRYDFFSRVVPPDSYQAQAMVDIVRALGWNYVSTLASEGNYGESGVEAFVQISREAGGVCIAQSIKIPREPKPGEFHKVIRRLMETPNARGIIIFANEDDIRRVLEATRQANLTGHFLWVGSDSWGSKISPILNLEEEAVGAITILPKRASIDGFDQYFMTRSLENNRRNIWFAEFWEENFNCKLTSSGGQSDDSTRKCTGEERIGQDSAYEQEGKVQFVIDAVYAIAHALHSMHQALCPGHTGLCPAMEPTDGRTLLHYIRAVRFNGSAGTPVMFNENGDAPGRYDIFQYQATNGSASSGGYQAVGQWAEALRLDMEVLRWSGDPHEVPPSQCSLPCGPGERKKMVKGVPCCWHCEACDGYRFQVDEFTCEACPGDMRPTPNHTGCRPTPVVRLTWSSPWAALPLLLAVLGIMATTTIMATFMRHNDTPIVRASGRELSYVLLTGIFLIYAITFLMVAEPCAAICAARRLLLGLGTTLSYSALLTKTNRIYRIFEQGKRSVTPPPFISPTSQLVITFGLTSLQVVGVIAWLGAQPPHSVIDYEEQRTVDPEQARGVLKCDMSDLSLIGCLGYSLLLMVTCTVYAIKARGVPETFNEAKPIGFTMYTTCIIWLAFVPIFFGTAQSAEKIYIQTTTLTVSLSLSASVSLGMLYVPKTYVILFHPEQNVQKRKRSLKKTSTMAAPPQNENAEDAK
Assay: Effective concentration required for agonistic activity at Metabotropic glutamate receptor 6
Type: functional
Classes (EC50): small value = under 60 µM, mid value = from 60 µM up to 200 µM, large value = 200 µM and over

Below, 6 compounds whose answers are already recorded.
[
  {
    "compound": "N[C@]1(C(=O)O)C[C@H](C(=O)O)N(Cc2ccc(O)cc2)C1",
    "group label": "mid value"
  },
  {
    "compound": "Cl.Cl.N[C@]1(C(=O)O)C[C@H](C(=O)O)N(Cc2ccc(C(=O)O)cc2)C1",
    "group label": "small value"
  },
  {
    "compound": "N[C@]1(C(=O)O)C[C@H](C(=O)O)N(Cc2ccccc2[N+](=O)[O-])C1",
    "group label": "mid value"
  },
  {
    "compound": "N[C@]1(C(=O)O)C[C@H](C(=O)O)N(Cc2ccccc2Br)C1",
    "group label": "large value"
  },
  {
    "compound": "Cl.Cl.N[C@]1(C(=O)O)C[C@H](C(=O)O)N(Cc2cc([N+](=O)[O-])cc([N+](=O)[O-])c2)C1",
    "group label": "large value"
  },
  {
    "compound": "Cl.Cl.N[C@]1(C(=O)O)C[C@H](C(=O)O)N(Cc2cccc(C(=O)O)c2)C1",
    "group label": "small value"
  }
]

Class (by measured EC50) for N[C@]1(C(=O)O)C[C@H](C(=O)O)N(C(C(=O)O)c2ccccc2)C1 (some centres undefined)
small value

Class (by measured EC50) for COc1ccc(CN2C[C@@](N)(C(=O)O)C[C@@H]2C(=O)O)cc1
large value

Class (by measured EC50) for N[C@]1(C(=O)O)C[C@H](C(=O)O)N(Cc2cccc([N+](=O)[O-])c2)C1
mid value

---

Target: Metabotropic glutamate receptor 2 (Rattus norvegicus, UniProt P31421)
Sequence (P31421 whole entry): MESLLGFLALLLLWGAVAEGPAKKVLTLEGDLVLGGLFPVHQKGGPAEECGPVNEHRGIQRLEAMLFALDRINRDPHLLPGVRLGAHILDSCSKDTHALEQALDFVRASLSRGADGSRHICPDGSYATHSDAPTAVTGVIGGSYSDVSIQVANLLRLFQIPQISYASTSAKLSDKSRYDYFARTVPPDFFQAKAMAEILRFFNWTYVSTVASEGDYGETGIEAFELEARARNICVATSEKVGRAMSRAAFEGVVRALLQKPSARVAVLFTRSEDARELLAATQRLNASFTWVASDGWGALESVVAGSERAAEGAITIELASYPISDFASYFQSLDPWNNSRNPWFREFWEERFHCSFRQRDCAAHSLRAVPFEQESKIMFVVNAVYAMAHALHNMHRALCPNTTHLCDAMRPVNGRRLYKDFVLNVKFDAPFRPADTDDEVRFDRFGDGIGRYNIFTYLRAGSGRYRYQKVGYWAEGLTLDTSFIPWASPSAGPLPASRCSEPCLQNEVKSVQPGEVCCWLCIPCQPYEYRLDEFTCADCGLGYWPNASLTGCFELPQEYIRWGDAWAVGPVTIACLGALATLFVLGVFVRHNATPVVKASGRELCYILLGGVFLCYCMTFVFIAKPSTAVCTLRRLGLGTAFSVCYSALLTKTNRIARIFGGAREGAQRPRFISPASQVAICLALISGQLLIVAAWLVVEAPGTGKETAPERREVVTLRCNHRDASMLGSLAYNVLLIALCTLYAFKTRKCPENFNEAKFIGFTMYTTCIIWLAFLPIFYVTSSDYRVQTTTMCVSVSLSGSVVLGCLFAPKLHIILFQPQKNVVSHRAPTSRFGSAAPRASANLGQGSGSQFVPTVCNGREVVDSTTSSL
Assay: Inhibitory concentration required for antagonistic activity at Metabotropic glutamate receptor 2
Type: functional
measured parameter: IC50 (µM)
// units = µM; emit number, no label

Suppose we examine the compound CC(N)(C(=O)O)c1ccc(C(=O)O)cc1 (stereo unspecified) ; what IC50 value has been reported?
290

---

pEC50 values by entry
Biological target: Metabotropic glutamate receptor 2 (Rattus norvegicus)
Experiment: Effective concentration required for agonistic activity at Metabotropic glutamate receptor 2
Type: functional
// scale note: pEC50 = -log10(conc_M); give the bare number

These recorded examples may help you get a feel for the data.
[
  {
    "input smiles": "N[C@]1(C(=O)O)C[C@H](C(=O)O)N(Cc2ccc(O)cc2)C1",
    "measured": 4.62
  },
  {
    "input smiles": "Cl.Cl.N[C@]1(C(=O)O)C[C@H](C(=O)O)N(Cc2cccc(O)c2)C1",
    "measured": 3.02
  }
]

Suppose we examine the compound Cl.Cl.Cl.N[C@]1(C(=O)O)C[C@H](C(=O)O)N(Cc2ccccn2)C1 ; what pEC50 value has been reported?
4.43
